Let's look at some compounds and their measured DC50.
SYSTEM TESTED: BRD9-GFP (Homo sapiens, UniProt Q9H8M2)
Construct: CHYSEL (2A cis-acting hydrolase element) remnant after GFP; mCherry is split off as a separate protein (C); expressed in transfected cells; host or cells: HEK293A cells (Invitrogen R70507), lentiviral transduction with pLenti6-BRD9-GFP-CHYSEL-mCherry, blasticidin selection
Sequence (Q9H8M2 1-597): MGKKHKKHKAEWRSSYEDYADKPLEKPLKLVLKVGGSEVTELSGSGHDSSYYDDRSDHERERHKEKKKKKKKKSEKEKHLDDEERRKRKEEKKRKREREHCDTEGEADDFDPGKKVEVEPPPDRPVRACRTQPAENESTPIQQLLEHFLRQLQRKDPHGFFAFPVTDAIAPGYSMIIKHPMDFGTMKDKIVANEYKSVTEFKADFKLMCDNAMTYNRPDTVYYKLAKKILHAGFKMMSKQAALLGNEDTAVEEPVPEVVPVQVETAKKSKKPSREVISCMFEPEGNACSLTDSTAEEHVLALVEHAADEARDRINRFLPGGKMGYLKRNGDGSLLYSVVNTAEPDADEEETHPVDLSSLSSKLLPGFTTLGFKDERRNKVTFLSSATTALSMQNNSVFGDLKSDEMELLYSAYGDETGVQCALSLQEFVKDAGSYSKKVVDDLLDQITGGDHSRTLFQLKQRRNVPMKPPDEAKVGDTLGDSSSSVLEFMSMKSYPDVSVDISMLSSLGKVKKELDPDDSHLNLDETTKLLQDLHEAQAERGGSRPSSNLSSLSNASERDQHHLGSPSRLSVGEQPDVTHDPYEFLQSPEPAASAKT
EXPERIMENTAL PROTOCOL: BRD9-GFP protein abundance flow cytometry assay in HEK293A cells
Type: cell-based
SETTINGS: HEK293A-BRD9-GFP-CHYSEL-mCherry cells, 24 h at 37° C., 10-point 1:3 dilution; concentration at which 50% maximal degradation was observed
Number only, in nM; omit the unit.

# annotated cases, reported DC50 shown
- STRUCTURE STRING: "COc1cc(-c2cn(C)c(=O)c3cnccc23)cc(OC)c1CCN1CCC(OC2CCN(CCn3cccc(CN4CCC(=O)NC4=O)c3=O)CC2)CC1"
  SYSTEM TESTED: "BRD9-GFP (Homo sapiens, UniProt Q9H8M2)"
  MEASURED RESULT: 17
- STRUCTURE STRING: "COc1cc(-c2cn(C)c(=O)c(C)c2C)cc(OC)c1CCN1CCC(OC2CCN(C(=O)c3ccc(Cl)c(N4CCC(=O)NC4=O)c3)CC2)CC1"
  SYSTEM TESTED: "BRD9-GFP (Homo sapiens, UniProt Q9H8M2)"
  MEASURED RESULT: 1

Now turn to the next compound.
// DC50 lookup, key: COc1cc(-c2cn(C)c(=O)c(C)c2C)ccc1CN1CCN(CC2CCN(C(=O)c3ccc(OC)c(N4CCC(=O)NC4=O)c3)CC2)CC1 15

----------
SYSTEM TESTED: BRD9-GFP (Homo sapiens)
Construct: CHYSEL (2A cis-acting hydrolase element) remnant after GFP; mCherry is split off as a separate protein (C); expressed in transfected cells; host or cells: HEK293A cells (Invitrogen R70507), lentiviral transduction with pLenti6-BRD9-GFP-CHYSEL-mCherry, blasticidin selection
EXPERIMENTAL PROTOCOL: BRD9-GFP protein abundance flow cytometry assay in HEK293A cells
Type: cell-based
SETTINGS: HEK293A-BRD9-GFP-CHYSEL-mCherry cells, 24 h; % protein remaining at the concentration at which maximum degradation is seen
Please assign Not satisfied whenever BRD9 Deg Amax % is at or above 20%, and Satisfied whenever it is below.

Some entries whose results are on file:
- COMPOUND: "COc1cc(-c2cn(C)c(=O)c3cnccc23)cc(OC)c1CCCN1CCC(OC2CCN(C(=O)c3ccc(Cl)c(N4CCC(=O)NC4=O)c3)CC2)CC1 [Compound A28]"
  ASSIGNED LABEL: "Not satisfied"
- COMPOUND: "CCCCn1cc(-c2ccc(CN3CCC(OC4CCN(C(=O)c5ccc(OC)c(N6CCC(=O)NC6=O)c5)CC4)CC3)c(F)c2)c2ccncc2c1=O [Compound E54]"
  ASSIGNED LABEL: "Satisfied"

Check if BRD9 Deg Amax % falls below 20% for CCCCn1cc(-c2ccc(O[C@H]3CCN(CC4CCN(C(=O)c5ccc(OC)c(N6CCC(=O)NC6=O)c5)CC4)C[C@@H]3F)c(OC)c2)c2ccncc2c1=O [Compound E32] . Satisfied

Consider CCCCn1cc(-c2cc(OC)c(CN3CCC(OC4CCN(CCn5cccc(CN6CCC(=O)NC6=O)c5=O)CC4)CC3)c(OC)c2)c2ccncc2c1=O [Compound D2] . Does its BRD9 Deg Amax % lie strictly below 20%? Satisfied

Problem: For the compound COc1cc(-c2cn(C)c(=O)c3cnccc23)cc(OC)c1OC1CCN(CC2CCN(C(=O)c3ccc(Cl)c(N4CCC(=O)NC4=O)c3)CC2)CC1 [Compound A9] , is BRD9 Deg Amax % under 20%? Not satisfied

Quick check: does CCCn1cc(-c2cc(OC)c(CCN3CC[C@@H](OC4CCN(CCn5cccc(CN6CCC(=O)NC6=O)c5=O)CC4)[C@H](F)C3)c(OC)c2)c(C)c(C)c1=O [Compound E7] have BRD9 Deg Amax % under 20%? Satisfied

----------
Quick reference: BRD9 Deg Amax % of the listed items.
SYSTEM TESTED: BRD9-GFP (Homo sapiens)
Construct: CHYSEL (2A cis-acting hydrolase element) remnant after GFP; mCherry is split off as a separate protein (C); expressed in transfected cells; host or cells: HEK293A cells (Invitrogen R70507), lentiviral transduction with pLenti6-BRD9-GFP-CHYSEL-mCherry, blasticidin selection
EXPERIMENTAL PROTOCOL: BRD9-GFP protein abundance flow cytometry assay in HEK293A cells
Format: cell-based
SETTINGS: HEK293A-BRD9-GFP-CHYSEL-mCherry cells, 24 h; % protein remaining at the concentration at which maximum degradation is seen
Unit % implied. Number only.

- STRUCTURE STRING: "CCCCn1cc(-c2ccc(O[C@H]3CC[C@@H](OC4CCN(CCn5cccc(CN6CCC(=O)NC6=O)c5=O)CC4)CC3)cc2)c2ccncc2c1=O"
  DISPLAY UNIT: "%"
  MEASURED RESULT: 15.90
- STRUCTURE STRING: "CCCCn1cc(-c2cc(F)c(OC3CCN(CCC4CCN(C(=O)c5ccc(OC)c(N6CCC(=O)NC6=O)c5)CC4)CC3)c(F)c2)c2ccncc2c1=O"
  DISPLAY UNIT: "%"
  MEASURED RESULT: 21.29
- STRUCTURE STRING: "COc1cc(-c2cn(C)c(=O)c3cnccc23)c(OC)cc1CCN1CCC(OC2CCN(C(=O)c3ccc(OC)c(N4CCC(=O)NC4=O)c3)CC2)CC1"
  DISPLAY UNIT: "%"
  MEASURED RESULT: 13.54

Look at this compound and give its reported BRD9 Deg Amax %. COc1cc(-c2cn(C)c(=O)c3cnccc23)ccc1OC1CCN(CC2CCN(C(=O)c3cccc(N4CCC(=O)NC4=O)c3)CC2)CC1 19.45

Given the entry COc1cc(-c2cc(C)c(=O)n(C)c2)ccc1C(=O)N1CCC(OC2CCN(C(=O)c3ccc(OC)c(N4CCC(=O)NC4=O)c3)CC2)CC1 , report its measured BRD9 Deg Amax %. 13.39

Name the reported BRD9 Deg Amax % value associated with the compound CCCCn1cc(-c2cc(OC)c(OC3CCN(CC4CCN(C(=O)c5ccc(Cl)c(N6CCC(=O)NC6=O)c5)CC4)CC3)c(OC)c2)c2ccncc2c1=O 14.33

----------
SYSTEM TESTED: BRD9-GFP (Homo sapiens, UniProt Q9H8M2)
Construct: CHYSEL (2A cis-acting hydrolase element) remnant after GFP; mCherry is split off as a separate protein (C); expressed in transfected cells; host or cells: HEK293A cells (Invitrogen R70507), lentiviral transduction with pLenti6-BRD9-GFP-CHYSEL-mCherry, blasticidin selection
EXPERIMENTAL PROTOCOL: BRD9-GFP protein abundance flow cytometry assay in HEK293A cells
Type: cell-based
SETTINGS: HEK293A-BRD9-GFP-CHYSEL-mCherry cells, 24 h at 37° C., 10-point 1:3 dilution; concentration at which 50% maximal degradation was observed
Entries and their DC50 values follow.

- STRUCTURE STRING: "CCCCn1cc(-c2ccc(OC3CCN(CC4CCN(C(=O)c5ccc(OC)c(N6CCC(=O)NC6=O)c5)CC4)CC3)c(F)c2)c2ccncc2c1=O"
  MEASURE NAME: "DC50"
  MEASURED RESULT: "2 nM"
- STRUCTURE STRING: "CCCCn1cc(-c2cc(F)c(CN3CCC(OC4CCN(C(=O)c5ccc(OC)c(N6CCC(=O)NC6=O)c5)CC4)CC3)c(F)c2)c2ccncc2c1=O"
  MEASURE NAME: "DC50"
  MEASURED RESULT: "5 nM"
- STRUCTURE STRING: "CCCCn1cc(-c2ccc(O[C@@H]3CCN(CC4CCN(CCn5cccc(CN6CCC(=O)NC6=O)c5=O)CC4)C[C@H]3F)c(F)c2)c2ccncc2c1=O"
  MEASURE NAME: "DC50"
  MEASURED RESULT: "5 nM"
- STRUCTURE STRING: "COc1cc(-c2cc(C)c(=O)n(C)c2)ccc1C(=O)N1CCC(OC2CCN(C(=O)c3ccc(OC)c(N4CCC(=O)NC4=O)c3)CC2)CC1"
  MEASURE NAME: "DC50"
  MEASURED RESULT: "63 nM"
- STRUCTURE STRING: "COc1cc(-c2cn(C)c(=O)c(C)c2C)cc(OC)c1CCN1CCC(OC2CCN(C(=O)c3cccc(N4CCC(=O)NC4=O)c3)CC2)CC1"
  MEASURE NAME: "DC50"
  MEASURED RESULT: "6 nM"
- STRUCTURE STRING: "COc1cc(-c2cn(C)c(=O)c3cnccc23)c(OC)cc1CCN1CCC(OC2CCN(CCn3cccc(CN4CCC(=O)NC4=O)c3=O)CC2)CC1"
  MEASURE NAME: "DC50"
  MEASURED RESULT: "77 nM"
- STRUCTURE STRING: "CCCCn1cc(-c2cc(OC)c(CCN3CC[C@@H](OC4CCN(C(=O)c5ccc(Cl)c(N6CCC(=O)NC6=O)c5)CC4)[C@H](F)C3)cc2OC)c2ccncc2c1=O"
  MEASURE NAME: "DC50"
  MEASURED RESULT: "49 nM"
- STRUCTURE STRING: "COc1cc(-c2cn(C)c(=O)c3cnccc23)cc(OC)c1CN1CCC(OC2CCN(CCn3cccc(CN4CCC(=O)NC4=O)c3=O)CC2)CC1"
  MEASURE NAME: "DC50"
  MEASURED RESULT: "29 nM"

Dear colleague, I am looking for the recorded DC50 of the following molecule: CCCCn1cc(-c2cc(OC)c(CCN3CCC(OC4CCN(C(=O)c5ccc(Cl)c(N6CCC(=O)NC6=O)c5)CC4)CC3)c(OC)c2)c2ccncc2c1=O 3 nM

If you can, please state the reported DC50 value of COc1cc(-c2cn(C)c(=O)c3cnccc23)c(OC)cc1CN1CCC(OC2CCN(C(=O)c3ccc(C)c(N4CCC(=O)NC4=O)c3)CC2)CC1 . 34 nM

Need DC50, item CCCCn1cc(-c2cc(F)c(O[C@@H]3CCN(CC4CCN(C(=O)c5ccc(OC)c(N6CCC(=O)NC6=O)c5)CC4)C[C@H]3F)c(F)c2)c2ccncc2c1=O 1 nM

I have this molecule here, COc1cc(-c2cn(C)c(=O)c3cnccc23)cc(OC)c1CN1CCC(OC2CCN(C(=O)COc3ccc(N4CCC(=O)NC4=O)cc3)CC2)CC1 , and I need its recorded DC50. 31 nM
